Tested on: MS2 coat protein
Assay: apparent KD of MS2 coat protein; designed switch direction (-1 OFF switch, 1 ON switch): -1; higher = weaker reporter binding
Cond: input ligand: FMN 200 uM
Quantity measured: apparent KD of MS2 coat protein (nM)
// note: answer is a bare numeric in nM

Record lookup: for MS2 coat protein, what apparent KD of MS2 coat protein belongs to UACAUGAGGAUCACCCAUGUUUUGUCGUGUAUGGUAUUUAUCUAGGAUAUCAAUGUAUUUAUUCAUGAGAAGGAGAAUAUUAAU [JMF's solution 48] (Eterna round: R96, puzzle: Exclusion NG 3) ? 32.4

Form entry - test system: MS2 coat protein; read-out: apparent KD of MS2 coat protein; sequence: GUCUUGUCAGGAUAUCUUACAUAACAAUCGUAGUUACAAUUGGAGAAGGGACAUGAGGAUCACCCAUGUUAGCA [tap-tap-tappy36] (Eterna round: R97, puzzle: Exclusion 4) 26.5

Hi! What's the reported apparent KD of MS2 coat protein for GCGCCAUCGUGAGAUGGCGUUUCGACAUGAGGAUCACCCAUGUAGGAUAUCGAUUGCUUUGCAGUCGAGAAGGGCGUGAUAAGU [JL ENG3 3.72] (Eterna round: R96, puzzle: Exclusion NG 3) on MS2 coat protein? 104

Recorded apparent KD of MS2 coat protein for GGACCGUAAGGAUAUGGCACGAAUCGACAGUCGAUCUCGAGCUAGAAGGUACAUGAGGAUCACCCAUGUCCGUU [Eternabot (L1) Solution 13] (Eterna round: R97, puzzle: Exclusion 4) with MS2 coat protein, please? 25.4

Attribution: the supplement of paper PMC9170038
